Biological target: pre-miR24-1
Test: Dissociation constant by competitive fluorescence anisotropy with rhodamine-rev peptide probe
Assay type: binding
Settings: Table 6
Kd values by entry
Record the value in nM, omitting the unit from your answer.

Field: example entries. Status: answers known.
LKKLLKWLKKLLKWAG [Peptide 2g, Ac-LKKLLKWLKKLLKWAG, 18] = 0.47
LKKLLKLLKKWLKWAG [Peptide 2i, Ac-LKKLLKLLKKWLKWAG, 20] = 0.53
WKKLWKLLKKLLKLAG [Peptide 2a, Ac-WKKLWKLLKKLLKLAG, 12] = 0.82
WKKLLKWLKKLLKLAG [Peptide 2b, Ac-WKKLLKWLKKLLKLAG, 13] = 0.43
LKKLLKLLKKWWKLAG [Peptide 2h, Ac-LKKLLKLLKKWWKLAG, 19] = 1.5

Exercise: Requested read-out Kd, target or system pre-miR24-1, entry WKKLLKLLKKWLKLAG [Peptide 2c, Ac-WKKLLKLLKKWLKLAG, 14]
Key: 0.88

Exercise: Entry LKKLWKLLKKLLKWAG [Peptide 2f, Ac-LKKLWKLLKKLLKWAG, 17] please
Key: 2.2

Exercise: Entry WKKLLKLLKKLLKWAG [Peptide 2e, Ac-WKKLLKLLKKLLKWAG, 16] please
Key: 0.84

Exercise: Entry WKKLLKLLKKLWKLAG [Peptide 2d, Ac-WKKLLKLLKKLWKLAG, 15] please
Key: 0.67

Exercise: Entry LKKLLKLLKKLWKWAG [Peptide 2j, Ac-LKKLLKLLKKLWKWAG, 21] please
Key: 0.27
